Measured log10 of GI50 of individual entries
Test system: all human cancer cell lines successfully tested
Test: NCI screen, mean graph midpoint (MGM) for growth inhibition
Settings: Homo sapiens, read-out: MGM (μM)
The common logarithm of GI50 in µM is what is listed.

COc1ccc2c(c1)-c1c(c3ccc([N+](=O)[O-])cc3c(=O)n1CCCn1ccnc1)C2=O	-1.70

Query block: Find the recorded log10 of GI50 belonging to NCCCn1c2c(c3ccc(N)cc3c1=O)C(=O)c1ccccc1-2 and report it.
Result block: -0.80

Query block: Then what about the compound COc1ccc2c(c1)-c1c(c3ccc([N+](=O)[O-])cc3c(=O)n1CCCN)C2=O.Cl [Compound 51 of (B), Hydrochloride] ?
Result block: -0.77

Query block: Then what about the compound O=C1c2ccccc2-c2c1c1ccc([N+](=O)[O-])cc1c(=O)n2CCCO ?
Result block: -0.05

Query block: Ok, now COc1ccc2c(c1)C(=O)c1c-2n(CCCN)c(=O)c2cc([N+](=O)[O-])ccc12
Result block: -1.70

Query block: Entry to check: Cl.NCCCn1c2c(c3ccc(NCC(=O)O)cc3c1=O)C(=O)c1ccccc1-2 [Compound 43 of (B), Hydrochloride]
Result block: -0.06

Query block: Thanks! And CCOC(=O)CNc1ccc2c3c(n(CCCN)c(=O)c2c1)-c1ccccc1C3=O.Cl [Compound 40 of (B), Hydrochloride] ?
Result block: 0.23

----------
Test system: UACC-62
Assay: NCI screen cytotoxicity, melanoma UACC-62
Assay type: cell-based
Details: Homo sapiens, 50% growth inhibition
property name: GI50 (µM)
Reply with just the number (in µM).

Cl.NCCCn1c2c(c3ccc(NCC(=O)O)cc3c1=O)C(=O)c1ccccc1-2 [Compound 43 of (B), Hydrochloride]	0.72
O=C1c2ccccc2-c2c1c1ccc([N+](=O)[O-])cc1c(=O)n2CCCO	0.31
CCOC(=O)CNc1ccc2c3c(n(CCCN)c(=O)c2c1)-c1ccccc1C3=O.Cl [Compound 40 of (B), Hydrochloride]	2.25

For the next question, use this compound.
Query block: Which measured GI50 value corresponds to NCCCn1c2c(c3ccc(N)cc3c1=O)C(=O)c1ccccc1-2 ?
Result block: 0.3

----------
Molecular target: Tdp1 (Homo sapiens (Human), UniProt Q9NUW8)
Sequence (Q9NUW8 whole entry): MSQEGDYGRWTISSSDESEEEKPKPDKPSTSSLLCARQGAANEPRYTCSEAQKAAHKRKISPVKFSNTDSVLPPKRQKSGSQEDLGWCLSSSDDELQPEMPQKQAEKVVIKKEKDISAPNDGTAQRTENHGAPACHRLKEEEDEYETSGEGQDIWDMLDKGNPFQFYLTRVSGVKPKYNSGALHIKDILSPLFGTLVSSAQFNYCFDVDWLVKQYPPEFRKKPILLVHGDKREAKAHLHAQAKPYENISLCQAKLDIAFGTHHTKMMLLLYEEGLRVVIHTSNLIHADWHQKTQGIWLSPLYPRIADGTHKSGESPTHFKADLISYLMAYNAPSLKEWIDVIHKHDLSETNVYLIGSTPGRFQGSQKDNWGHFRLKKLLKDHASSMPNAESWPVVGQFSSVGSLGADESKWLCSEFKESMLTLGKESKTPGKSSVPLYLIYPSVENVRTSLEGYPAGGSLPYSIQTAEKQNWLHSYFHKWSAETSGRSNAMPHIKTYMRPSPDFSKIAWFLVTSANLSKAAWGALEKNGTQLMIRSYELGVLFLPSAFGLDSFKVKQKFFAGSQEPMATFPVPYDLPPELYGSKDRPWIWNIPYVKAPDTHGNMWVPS
Test: Gel-based assay measuring the inhibition of recombinant Tdp1
Type: biochemical
property name: Tdp1 inhibitory activity (in words)

COc1ccc2c(c1)-c1c(c3ccc([N+](=O)[O-])cc3c(=O)n1CCCN1CCOCC1)C2=O [Compound 53 of (B)]	very weak or inactive
COc1ccc2c(c1)-c1c(c3ccc([N+](=O)[O-])cc3c(=O)n1CCCn1ccnc1)C2=O [Compound 52 of (B)]	very weak or inactive

----------
Biological target: Tdp1 (Homo sapiens (Human), UniProt Q9NUW8)
Assay: Gel-based assay measuring the inhibition of recombinant Tdp1;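 further: 5′-32P-labeled single-stranded DNA with 3′-phosphotyrosine incubated with 5 pM enzyme for 15 min at room temperature, inhibition seen as loss of 3′-phosphate product band by densitometry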
Format: biochemical
Conditions: read-out: Tdp1 (μM) IC50
We begin with a simple list: items and their reported IC50.
# value in µM; strip the unit string

COc1ccc2c(c1)-c1c(c3ccc([N+](=O)[O-])cc3c(=O)n1CCCN)C2=O.Cl [Compound 51 of (B), Hydrochloride]	15

Query block: Find the recorded IC50 belonging to CCOC(=O)CNc1ccc2c3c(n(CCCN)c(=O)c2c1)-c1ccccc1C3=O.Cl [Compound 40 of (B), Hydrochloride] and report it.
Result block: 11

Data origin, for the record: patent US8912213B2
